Catalogue of Count Excised Nerve readings, one per entry.
Test system: excised human nerve tissue (or nerve extracts)
Experiment: Phage display library screening (Example 2), NEB tissue-binding peptides: nerve tissue and nerve extracts versus muscle
Details: unique sequence count, tissue target: excised nerve, peptides not binding muscle extracts

- Sequence Text: "SDHTFKRVMFRW"
  Tested System: "excised human nerve tissue (or nerve extracts)"
  Count Excised Nerve: 8
- Sequence Text: "DASQYPLVSGLW"
  Tested System: "excised human nerve tissue (or nerve extracts)"
  Count Excised Nerve: 10
- Sequence Text: "VNYQTPWNKHWY"
  Tested System: "excised human nerve tissue (or nerve extracts)"
  Count Excised Nerve: 10
- Sequence Text: "DVMQMFHQVHFY"
  Tested System: "excised human nerve tissue (or nerve extracts)"
  Count Excised Nerve: 10
- Sequence Text: "QANLYYWDPSDL"
  Tested System: "excised human nerve tissue (or nerve extracts)"
  Count Excised Nerve: 8
- Sequence Text: "GWQMFPPMQNTR"
  Tested System: "excised human nerve tissue (or nerve extracts)"
  Count Excised Nerve: 10
- Sequence Text: "NTEYSRYTSIWK"
  Tested System: "excised human nerve tissue (or nerve extracts)"
  Count Excised Nerve: 8
- Sequence Text: "GHAHSLTQNPLF"
  Tested System: "excised human nerve tissue (or nerve extracts)"
  Count Excised Nerve: 10
- Sequence Text: "IPGQTPRMPHSK"
  Tested System: "excised human nerve tissue (or nerve extracts)"
  Count Excised Nerve: 8
- Sequence Text: "ALNHNGPVKTGL"
  Tested System: "excised human nerve tissue (or nerve extracts)"
  Count Excised Nerve: 10
- Sequence Text: "EPWQSRDKVIEE"
  Tested System: "excised human nerve tissue (or nerve extracts)"
  Count Excised Nerve: 8
- Sequence Text: "VPVPKKMSLDPT"
  Tested System: "excised human nerve tissue (or nerve extracts)"
  Count Excised Nerve: 8

----------
Known Count of a selection of substances
Target: Human Myelin Basic Protein (Homo sapiens)
Test: phage display, NGS count
Property Name: Count

- Substance: "SEPGTVR (peptide)"
  Recorded Value: 7
- Substance: "QKALPQT (peptide)"
  Recorded Value: 6
- Substance: "MPSLKHQ (peptide)"
  Recorded Value: 8

----------
Tested on: Laminin 421/521
Test: Phage display library screening (Example 2), NEB laminin-binding peptides
Set-up: species or system human
Settings: Laminin 421/521, not 211 and 411; combined unique sequence count, Python/R script analysis
Property Name: Count

- Substance: "CSRAGLSAC (Laminin 421/521-binding peptide)"
  Property Name: "Count"
  Recorded Value: 30
- Substance: "WPMMQTR (Laminin 421/521-binding peptide)"
  Property Name: "Count"
  Recorded Value: 29
- Substance: "AHAAGRDMRQGT (Laminin 421/521-binding peptide)"
  Property Name: "Count"
  Recorded Value: 36
- Substance: "IDLSLRS (Laminin 421/521-binding peptide)"
  Property Name: "Count"
  Recorded Value: 29
- Substance: "CTSKLARHC (Laminin 421/521-binding peptide)"
  Property Name: "Count"
  Recorded Value: 45
- Substance: "SVLSTGTANQRH (Laminin 421/521-binding peptide)"
  Property Name: "Count"
  Recorded Value: 28
- Substance: "LLAGPFR (Laminin 421/521-binding peptide)"
  Property Name: "Count"
  Recorded Value: 44
- Substance: "CSKHNHSRC (Laminin 421/521-binding peptide)"
  Property Name: "Count"
  Recorded Value: 295
- Substance: "AVRPLGLPDNHR (Laminin 421/521-binding peptide)"
  Property Name: "Count"
  Recorded Value: 29
- Substance: "GSTTHPHFGLPG (Laminin 421/521-binding peptide)"
  Property Name: "Count"
  Recorded Value: 40
- Substance: "QTFHEYLNPARG (Laminin 421/521-binding peptide)"
  Property Name: "Count"
  Recorded Value: 37

----------
Target: Human Myelin Basic Protein (Homo sapiens, UniProt P02686)
Sequence (P02686 135-304 limits assumed): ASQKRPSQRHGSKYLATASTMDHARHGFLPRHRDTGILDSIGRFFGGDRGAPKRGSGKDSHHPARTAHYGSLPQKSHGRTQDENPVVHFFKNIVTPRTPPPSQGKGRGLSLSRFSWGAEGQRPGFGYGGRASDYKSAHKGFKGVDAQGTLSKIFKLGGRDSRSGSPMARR
Test: phage display, NGS count
Property Name: Count

- Substance: "SIQTSAM (peptide)"
  Recorded Value: 6
- Substance: "WDLRHSK (peptide)"
  Recorded Value: 6
- Substance: "YVNRVKQ (peptide)"
  Recorded Value: 6
- Substance: "ARVPNPL (peptide)"
  Recorded Value: 6
- Substance: "HRTHLHQ (peptide)"
  Recorded Value: 6
- Substance: "NLLQGVM (peptide)"
  Recorded Value: 7
- Substance: "MNSPLAQ (peptide)"
  Recorded Value: 6
- Substance: "LTKSLNH (peptide)"
  Recorded Value: 7
- Substance: "RSRKHRP (peptide)"
  Recorded Value: 6
- Substance: "QQAHLQS (peptide)"
  Recorded Value: 8
- Substance: "FSAGVGK (peptide)"
  Recorded Value: 7
- Substance: "LMLPQLE (peptide)"
  Recorded Value: 6
- Substance: "TPVRLNT (peptide)"
  Recorded Value: 6
- Substance: "SLWTHRT (peptide)"
  Recorded Value: 6
- Substance: "VSFTLEP (peptide)"
  Recorded Value: 7
- Substance: "TPQVMLK (peptide)"
  Recorded Value: 8
- Substance: "AAGQRSF (peptide)"
  Recorded Value: 7
- Substance: "YTASPRW (peptide)"
  Recorded Value: 6
- Substance: "AVRQTTM (peptide)"
  Recorded Value: 7
- Substance: "TLLTALT (peptide)"
  Recorded Value: 7
- Substance: "SGNLKKA (peptide)"
  Recorded Value: 7
- Substance: "MDLSLKP (peptide)"
  Recorded Value: 10
- Substance: "QGTLFDT (peptide)"
  Recorded Value: 7
- Substance: "SNAHTLP (peptide)"
  Recorded Value: 6
- Substance: "DVVKDVI (peptide)"
  Recorded Value: 7
- Substance: "GQWWKML (peptide)"
  Recorded Value: 6
- Substance: "VVDMSTY (peptide)"
  Recorded Value: 7
- Substance: "YLPPPLP (peptide)"
  Recorded Value: 7
- Substance: "TRIPILL (peptide)"
  Recorded Value: 6
- Substance: "SISKIRT (peptide)"
  Recorded Value: 7
- Substance: "SRPTRVP (peptide)"
  Recorded Value: 9
- Substance: "FLNQAPT (peptide)"
  Recorded Value: 7

----------
Target: Human Myelin Basic Protein (Homo sapiens)
Assay: phage display, NGS count

- Substance: "RVIPSTT (peptide)"
  Count: 6
- Substance: "AIPPRKL (peptide)"
  Count: 6
- Substance: "KVHHLAR (peptide)"
  Count: 6
- Substance: "ESKSPRE (peptide)"
  Count: 6
- Substance: "HLLKTHS (peptide)"
  Count: 7
- Substance: "LITHPQL (peptide)"
  Count: 6
- Substance: "SLRSVGA (peptide)"
  Count: 7
- Substance: "FVLPNKN (peptide)"
  Count: 8
- Substance: "LVPPVNH (peptide)"
  Count: 6
- Substance: "GEPALVT (peptide)"
  Count: 6
- Substance: "QNSYLSN (peptide)"
  Count: 8
- Substance: "WTMKPNY (peptide)"
  Count: 14
- Substance: "ANLSRSV (peptide)"
  Count: 9
- Substance: "ALGTRPL (peptide)"
  Count: 7
- Substance: "TSRLVST (peptide)"
  Count: 8
- Substance: "KMSLAPP (peptide)"
  Count: 6
- Substance: "AQFLTIY (peptide)"
  Count: 6
- Substance: "SPPRFIP (peptide)"
  Count: 8
- Substance: "HRLPWHH (peptide)"
  Count: 10
- Substance: "HMAGVNQ (peptide)"
  Count: 7
- Substance: "DPWVMLR (peptide)"
  Count: 11
- Substance: "TIRVAHT (peptide)"
  Count: 6
- Substance: "SSMRYNS (peptide)"
  Count: 6
- Substance: "NPTDTNK (peptide)"
  Count: 8
- Substance: "TPVLWLP (peptide)"
  Count: 6
- Substance: "HPWSHPN (peptide)"
  Count: 6
- Substance: "ESPYPHS (peptide)"
  Count: 7
- Substance: "NTPKVLA (peptide)"
  Count: 10
- Substance: "WSLPLLS (peptide)"
  Count: 7
- Substance: "QTSIMSG (peptide)"
  Count: 6
- Substance: "WDLPQNR (peptide)"
  Count: 6
- Substance: "SYTLSRS (peptide)"
  Count: 7
- Substance: "ELKSLRF (peptide)"
  Count: 6

The reported measurements were obtained from patent US20240207421A1.
